Biological target: Human recombinant full length HDAC6 (Homo sapiens (Human))
Experiment: Test 4: HDAC6 assay
Type: biochemical
Settings: Test 4; substrate 5 μM acetyl-Gly-Ala-Lys(acetyl)-AMC
// returns Not met unless IC50 is strictly below 5 µM, in which case Met

Take a look at these entries with their results.
compound	label class
O=S(=O)(Nc1ccccc1F)c1ccc(-c2noc(C(F)(F)F)n2)cc1 [Example 111]	Met
CN(C)C[C@@H](Cc1ccccc1)NC(=O)c1ccc(-c2noc(C(F)(F)F)n2)cc1F [Example 118]	Met
O=C(NCc1ccccc1)c1ccc(-c2noc(C(F)(F)F)n2)cc1 [Example 46]	Met
CN(C)CCCNS(=O)(=O)c1ccc(-c2noc(C(F)(F)F)n2)cc1 [Example 113]	Not met

Consider now this further compound.
Lab log: compare recorded IC50 with 5 µM; is it strictly lower for C[C@H](CN1CCCCC1)NC(=O)c1ccc(-c2noc(C(F)(F)F)n2)cc1F [Example 129] ?
Met

----------
Biological target: Human recombinant HDAC4 (Homo sapiens (Human))
Assay: Test 2: HDAC4 assay (fluorogenic substrate, 5 μM acetyl-Gly-Ala-Lys(ε-trifluoroacetyl)-AMC)
Format: biochemical
Settings: Test 2 (values without asterisk)
pIC50 by entry:
pIC50 (log units): -log10 of the concentration in mol/L.

// solved cases for pIC50 follow
compound	target of assay	pIC50
CC(C)(C)OC(=O)N1CCC(NC(=O)c2ccc(-c3noc(C(F)(F)F)n3)cc2)CC1	Human recombinant HDAC4 (Homo sapiens (Human))	5.85
CCN(CC)C[C@@H](C)NC(=O)c1ccc(-c2noc(C(F)(F)F)n2)cc1	Human recombinant HDAC4 (Homo sapiens (Human))	8.30
O=C(NCCCn1ccnc1)c1ccc(-c2noc(C(F)(F)F)n2)cc1	Human recombinant HDAC4 (Homo sapiens (Human))	6.34
CNC(=O)CNC(=O)c1ccc(-c2noc(C(F)(F)F)n2)cc1	Human recombinant HDAC4 (Homo sapiens (Human))	6.11
O=S(=O)(Nc1ccccc1Cl)c1ccc(-c2noc(C(F)(F)F)n2)cc1	Human recombinant HDAC4 (Homo sapiens (Human))	6.08
CC(C)CC(CO)NC(=O)c1ccc(-c2noc(C(F)(F)F)n2)cc1 (centres unmarked)	Human recombinant HDAC4 (Homo sapiens (Human))	6.19
O=S(=O)(Nc1ccccc1F)c1ccc(-c2noc(C(F)(F)F)n2)cc1	Human recombinant HDAC4 (Homo sapiens (Human))	6.54
C[C@H](CN1CCCCC1)NC(=O)c1ccc(-c2noc(C(F)(F)F)n2)cc1	Human recombinant HDAC4 (Homo sapiens (Human))	8.00

Which pIC50 value is on record for O=C(NCCO)c1ccc(-c2noc(C(F)(F)F)n2)cc1 ?
6.18

May I ask what pIC50 has been recorded for CCC(CC)NC(=O)c1ccc(-c2noc(C(F)(F)F)n2)cc1 ?
5.19

----------
Molecular target: Human recombinant full length HDAC1 (Homo sapiens (Human))
Sequence (Q13547 whole entry): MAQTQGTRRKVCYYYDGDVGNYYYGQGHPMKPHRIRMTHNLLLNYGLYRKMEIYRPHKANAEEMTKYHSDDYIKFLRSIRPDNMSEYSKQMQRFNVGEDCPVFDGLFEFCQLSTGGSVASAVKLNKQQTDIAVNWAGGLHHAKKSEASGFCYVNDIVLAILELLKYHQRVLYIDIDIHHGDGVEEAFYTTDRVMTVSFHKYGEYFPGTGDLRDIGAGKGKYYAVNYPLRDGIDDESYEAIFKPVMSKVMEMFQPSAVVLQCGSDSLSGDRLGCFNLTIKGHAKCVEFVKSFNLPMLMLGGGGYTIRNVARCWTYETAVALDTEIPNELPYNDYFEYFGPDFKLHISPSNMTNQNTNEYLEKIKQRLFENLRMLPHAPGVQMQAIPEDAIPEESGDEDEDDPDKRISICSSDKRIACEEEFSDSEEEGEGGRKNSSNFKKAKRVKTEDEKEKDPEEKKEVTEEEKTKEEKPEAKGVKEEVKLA
Assay: Test 3: HDAC1 assay
Type: biochemical
Conditions: substrate 5 μM acetyl-Gly-Ala-Lys(acetyl)-AMC
metric: IC50

Worked examples, 4 compounds total:
compound	IC50
CN(C)C(=O)Cc1ccc(-c2noc(C(F)(F)F)n2)cc1 [Example 4]	> 10 µM
Cc1ccccc1NS(=O)(=O)c1ccc(-c2noc(C(F)(F)F)n2)cc1 [Example 103]	> 10 µM
CN1CCC(CNS(=O)(=O)c2ccc(-c3noc(C(F)(F)F)n3)cc2)C1 (centres unmarked) [Example 115]	> 10 µM
CN1CCN(C(=O)Cc2ccc(-c3noc(C(F)(F)F)n3)cc2)CC1 [Example 10]	> 10 µM

Using the record for O=C(Nc1ccncc1)c1ccc(-c2noc(C(F)(F)F)n2)cc1 [Example 47] , report its IC50.
> 10 µM

----------
Target: Human recombinant HDAC4 (Homo sapiens (Human))
Assay: Test 2: HDAC4 assay (fluorogenic substrate, 5 μM acetyl-Gly-Ala-Lys(ε-trifluoroacetyl)-AMC)
Assay type: biochemical
Conditions: Test 2 (values without asterisk)
Entries and their measured IC50 follow.
Entry rule: numbers only, all in nM.

compound	IC50, nM
O=C(N[C@H]1CCNC1)c1ccc(-c2noc(C(F)(F)F)n2)cc1 [Example 87]	300

# next compound below
Can you share its IC50? I mean this compound: CN(C)CCN(C)S(=O)(=O)c1ccc(-c2noc(C(F)(F)F)n2)cc1 [Example 99]
1350

----------
Target: Human recombinant full length HDAC6 (Homo sapiens (Human))
Test: Test 4: HDAC6 assay
Format: biochemical
Conditions: Test 4; substrate 5 μM acetyl-Gly-Ala-Lys(acetyl)-AMC
metric: IC50 (µM)
Field format: number, assumed µM, no unit text.

Would you please look over these solved cases?
compound	unit string	IC50
O=S(=O)(Nc1cccc(Cl)c1)c1ccc(-c2noc(C(F)(F)F)n2)cc1 [Example 107]	µM	0.46
CCN(CC)C[C@@H](C)NC(=O)c1ccc(-c2noc(C(F)(F)F)n2)cc1 [Example 132]	µM	8.3
CC(CNC(=O)c1ccc(-c2noc(C(F)(F)F)n2)cc1)N(C)C (stereo not shown) [Example 51]	µM	10

Let's switch to this compound now.
Report IC50 for CN1CCC(NC(=O)c2ccc(-c3noc(C(F)(F)F)n3)cc2)CC1 [Example 38] please.
3.9

----------
Molecular target: Human recombinant full length HDAC6 (Homo sapiens (Human), UniProt Q9UBN7)
Sequence (Q9UBN7 whole entry): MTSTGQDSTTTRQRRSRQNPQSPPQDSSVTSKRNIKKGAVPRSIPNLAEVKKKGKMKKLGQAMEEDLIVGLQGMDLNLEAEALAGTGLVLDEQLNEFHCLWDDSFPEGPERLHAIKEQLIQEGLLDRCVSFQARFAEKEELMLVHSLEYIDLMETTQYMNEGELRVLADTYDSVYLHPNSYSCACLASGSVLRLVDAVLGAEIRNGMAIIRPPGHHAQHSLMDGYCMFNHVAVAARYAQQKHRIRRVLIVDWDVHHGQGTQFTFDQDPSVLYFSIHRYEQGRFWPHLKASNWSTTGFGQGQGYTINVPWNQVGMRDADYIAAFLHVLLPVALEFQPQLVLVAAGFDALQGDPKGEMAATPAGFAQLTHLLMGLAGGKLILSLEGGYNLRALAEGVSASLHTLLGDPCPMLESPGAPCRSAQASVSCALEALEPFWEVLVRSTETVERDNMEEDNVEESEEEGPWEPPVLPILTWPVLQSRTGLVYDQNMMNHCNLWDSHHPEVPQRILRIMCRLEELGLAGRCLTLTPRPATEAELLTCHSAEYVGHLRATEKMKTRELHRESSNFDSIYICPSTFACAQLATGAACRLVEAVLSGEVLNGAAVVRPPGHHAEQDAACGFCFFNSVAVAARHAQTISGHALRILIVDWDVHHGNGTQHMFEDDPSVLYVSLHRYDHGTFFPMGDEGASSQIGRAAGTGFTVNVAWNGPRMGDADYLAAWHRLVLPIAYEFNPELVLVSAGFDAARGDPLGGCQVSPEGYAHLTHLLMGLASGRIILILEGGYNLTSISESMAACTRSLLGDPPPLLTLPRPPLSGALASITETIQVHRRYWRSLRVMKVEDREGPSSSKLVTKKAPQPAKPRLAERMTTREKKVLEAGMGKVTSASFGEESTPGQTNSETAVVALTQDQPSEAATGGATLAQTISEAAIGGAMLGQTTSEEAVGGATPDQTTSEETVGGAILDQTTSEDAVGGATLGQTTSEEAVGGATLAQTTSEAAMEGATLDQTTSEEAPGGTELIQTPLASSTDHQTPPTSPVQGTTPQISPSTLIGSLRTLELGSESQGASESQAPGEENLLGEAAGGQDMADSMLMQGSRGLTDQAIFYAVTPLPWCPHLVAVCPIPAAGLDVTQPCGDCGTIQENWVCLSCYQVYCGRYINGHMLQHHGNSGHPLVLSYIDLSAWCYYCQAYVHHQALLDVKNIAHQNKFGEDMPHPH
Assay: Test 4: HDAC6 assay
Format: biochemical
Conditions: Test 4; substrate 5 μM acetyl-Gly-Ala-Lys(acetyl)-AMC
pIC50: −log10 of the molar value.
metric: pIC50

Please review the following examples before continuing.
compound	pIC50
CC(C)[C@@H](CN(C)C)NC(=O)c1ccc(-c2noc(C(F)(F)F)n2)cc1	< 5.00
O=C(Nc1ccccc1)c1ccc(-c2noc(C(F)(F)F)n2)cc1	< 5.00
O=C(NC1CCNC1)c1ccc(-c2noc(C(F)(F)F)n2)cc1 (stereo not shown)	< 5.00
O=S(=O)(N[C@@H]1CCNC1)c1ccc(-c2noc(C(F)(F)F)n2)cc1	< 5.00
CN(C)C[C@H](Cc1ccccc1)NC(=O)c1ccc(-c2noc(C(F)(F)F)n2)cc1	5.31
O=C(Cc1ccc(-c2noc(C(F)(F)F)n2)cc1)N1CCOCC1	5.26

If you can, please state the reported pIC50 value of O=C(c1ccc(-c2noc(C(F)(F)F)n2)cc1)N1CCC(Cc2ccccc2)CC1 .
< 5.00

What value of pIC50 has been reported for the following compound? CNC(=O)Cc1ccc(-c2noc(C(F)(F)F)n2)cc1
< 5.00

Form field: reported pIC50 of O=C(c1ccc(-c2noc(C(F)(F)F)n2)cc1)N1CCC(O)C1 (stereo not shown)
< 5.00

Need pIC50 of O=C(c1ccc(-c2noc(C(F)(F)F)n2)cc1)N1CCN(c2ccccc2)CC1 , thanks.
< 5.00

----------
Molecular target: Human recombinant full length HDAC6 (Homo sapiens (Human))
Experiment: Test 4: HDAC6 assay
Type: biochemical
Settings: Test 4; substrate 5 μM acetyl-Gly-Ala-Lys(acetyl)-AMC
metric: pIC50
Formally, pIC50 is defined as -log10 of the concentration c, with c in mol/L.

Use the examples below as a reference point.
compound	target of assay	pIC50
O=S(=O)(Nc1ccc(F)cc1)c1ccc(-c2noc(C(F)(F)F)n2)cc1	Human recombinant full length HDAC6 (Homo sapiens (Human))	6.36
CC(C)(C)OC(=O)NC1CCCCC1NC(=O)c1ccc(-c2noc(C(F)(F)F)n2)cc1 (centres unmarked)	Human recombinant full length HDAC6 (Homo sapiens (Human))	5.66
CN(C)CCCN(C)S(=O)(=O)c1ccc(-c2noc(C(F)(F)F)n2)cc1	Human recombinant full length HDAC6 (Homo sapiens (Human))	5.04
CN1CCC[C@@H](NC(=O)c2ccc(-c3noc(C(F)(F)F)n3)cc2)C1	Human recombinant full length HDAC6 (Homo sapiens (Human))	5.14

Which pIC50 value belongs to CN(C)CCNC(=O)c1ccc(-c2noc(C(F)(F)F)n2)cc1 ?
5.15

What value of measured pIC50 is listed for CCN(CC)C[C@@H](C)NC(=O)c1ccc(-c2noc(C(F)(F)F)n2)cc1F ?
5.41

----------
Target: Human recombinant full length HDAC6 (Homo sapiens (Human))
Assay: Test 4: HDAC6 assay
Format: biochemical
Conditions: Test 4; substrate 5 μM acetyl-Gly-Ala-Lys(acetyl)-AMC
metric: pIC50
pIC50 here is simply -log10 of the concentration when that concentration is written in mol/L.

Please give the measured pIC50 for this compound: C[C@@H](CO)NC(=O)c1ccc(-c2noc(C(F)(F)F)n2)cc1 [Example 50]
5.14

Any idea what pIC50 was measured for CC(CNC(=O)c1ccc(-c2noc(C(F)(F)F)n2)cc1F)N(C)C (stereo not drawn) [Example 122] ?
5.62

Item CC(C)CC(CO)NC(=O)c1ccc(-c2noc(C(F)(F)F)n2)cc1 (stereo not drawn) [Example 58] has what recorded pIC50?
5.26

----------
# pIC50 annotations
Target: Human recombinant HDAC4 (Homo sapiens (Human), UniProt P56524)
Sequence (P56524 2-1084): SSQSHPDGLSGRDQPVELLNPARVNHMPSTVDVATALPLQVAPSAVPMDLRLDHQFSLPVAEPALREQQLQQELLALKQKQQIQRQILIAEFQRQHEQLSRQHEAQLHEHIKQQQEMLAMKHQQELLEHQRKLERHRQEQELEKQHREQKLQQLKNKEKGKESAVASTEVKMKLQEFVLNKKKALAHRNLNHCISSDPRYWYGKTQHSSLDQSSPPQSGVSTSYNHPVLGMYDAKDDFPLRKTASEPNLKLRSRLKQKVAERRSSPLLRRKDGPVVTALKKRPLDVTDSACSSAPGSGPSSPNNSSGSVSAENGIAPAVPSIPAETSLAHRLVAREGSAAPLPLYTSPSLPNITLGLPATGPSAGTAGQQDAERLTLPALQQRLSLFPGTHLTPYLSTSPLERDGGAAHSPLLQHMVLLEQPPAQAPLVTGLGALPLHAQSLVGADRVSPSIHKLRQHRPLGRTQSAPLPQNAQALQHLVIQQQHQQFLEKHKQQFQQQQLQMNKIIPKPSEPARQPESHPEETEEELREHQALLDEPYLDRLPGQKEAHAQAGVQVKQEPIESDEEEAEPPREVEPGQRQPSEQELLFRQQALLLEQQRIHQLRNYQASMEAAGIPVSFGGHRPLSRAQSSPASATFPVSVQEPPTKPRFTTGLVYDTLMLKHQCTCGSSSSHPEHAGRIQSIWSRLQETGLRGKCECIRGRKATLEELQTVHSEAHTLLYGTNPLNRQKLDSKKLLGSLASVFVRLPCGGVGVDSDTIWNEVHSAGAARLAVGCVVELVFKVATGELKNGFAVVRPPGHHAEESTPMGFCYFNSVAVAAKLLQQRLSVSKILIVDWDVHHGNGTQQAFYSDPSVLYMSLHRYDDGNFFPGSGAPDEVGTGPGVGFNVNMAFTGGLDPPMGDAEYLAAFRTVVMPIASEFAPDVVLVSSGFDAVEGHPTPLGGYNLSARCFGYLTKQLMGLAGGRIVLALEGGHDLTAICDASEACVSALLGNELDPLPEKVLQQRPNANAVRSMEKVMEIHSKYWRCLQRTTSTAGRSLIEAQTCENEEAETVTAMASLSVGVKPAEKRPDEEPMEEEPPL
Experiment: Test 2: HDAC4 assay (fluorogenic substrate, 5 μM acetyl-Gly-Ala-Lys(ε-trifluoroacetyl)-AMC)
Format: biochemical
Conditions: Test 2 (values without asterisk)
API: returns pIC50 as number; meaning -log10 of concentration in mol/L.

# example entries with known answers
compound	metric	val
CC(C)(C)c1cc(NC(=O)c2ccc(-c3noc(C(F)(F)F)n3)cc2)ccn1 [Example 69]	pIC50	6.54
CN(C)C(=O)c1ccc(-c2noc(C(F)(F)F)n2)cc1 [Example 1]	pIC50	6.44
O=C(NCCc1ccccc1)c1ccc(-c2noc(C(F)(F)F)n2)cc1 [Example 45]	pIC50	5.38
C[C@H](CN(C)C)NC(=O)c1ccc(-c2noc(C(F)(F)F)n2)cc1F [Example 88]	pIC50	7.92

For the compound shown here, O=C(NC1CCNC1)c1ccc(-c2noc(C(F)(F)F)n2)cc1 (stereo not shown) [Example 80] , give the reported pIC50.
6.33

I have this compound here, CN1CCC(CNS(=O)(=O)c2ccc(-c3noc(C(F)(F)F)n3)cc2)C1 (stereo not shown) [Example 115] , and I need its recorded pIC50.
5.57

Need pIC50 of O=S(=O)(Nc1ccc(F)cc1)c1ccc(-c2noc(C(F)(F)F)n2)cc1 [Example 109] , thanks.
7.01

Give its pIC50 value. Item: C[C@H](CN1CCCC1)NC(=O)c1ccc(-c2noc(C(F)(F)F)n2)cc1 [Example 130]
7.96

# lookup: pIC50 of O=C(NCCNc1ccccc1)c1ccc(-c2noc(C(F)(F)F)n2)cc1 [Example 158]
6.44

Fill in the blank: the reported pIC50 of CC(C)(C)OC(=O)N1CCC(NC(=O)c2ccc(-c3noc(C(F)(F)F)n3)cc2)C1 (stereo not shown) [Example 66] is ____.
6.48

Please report the recorded pIC50 for CC(C)N(C)C[C@@H](C)NC(=O)c1ccc(-c2noc(C(F)(F)F)n2)cc1 [Example 138] .
8.35

Look at this compound and give its reported pIC50. COc1cc(NC(=O)c2ccc(-c3noc(C(F)(F)F)n3)cc2)ccn1 [Example 67]
6.80

Quick one: pIC50 for Cc1cccc(NS(=O)(=O)c2ccc(-c3noc(C(F)(F)F)n3)cc2)c1 [Example 105] ?
6.57
